# Tested on: L1210
# Protocol: Cytotoxicity against […] mouse L1210 cells
# Assay type: cell-based
Rule: IC50 below 8 µM gives T, anything at or above gives F.

is_below(IC50, 8 µM) for `CC[N+](C)(CC)CCOc1ccc(C(=O)N2C/C(=C\c3ccc(Cl)cc3)C(=O)/C(=C/c3ccc(Cl)cc3)C2)cc1` ? F

is_below(IC50, 8 µM) for `CCN(CC)CCOc1ccc(C(=O)N2C/C(=C\c3ccc([N+](=O)[O-])cc3)C(=O)/C(=C/c3ccc([N+](=O)[O-])cc3)C2)cc1` ? T

is_below(IC50, 8 µM) for `CN(C)CCOc1ccc(C(=O)N2C/C(=C\c3ccc([N+](=O)[O-])cc3)C(=O)/C(=C/c3ccc([N+](=O)[O-])cc3)C2)cc1` ? T

is_below(IC50, 8 µM) for `O=C1/C(=C/c2ccccc2)CN(C(=O)c2ccc(OCCN3CCCCC3)cc2)C/C1=C\c1ccccc1` ? F

is_below(IC50, 8 µM) for `COc1ccc(C(=O)N2C/C(=C\c3ccccc3)C(=O)/C(=C/c3ccccc3)C2)cc1` ? F

is_below(IC50, 8 µM) for `O=C1/C(=C/c2ccc([N+](=O)[O-])cc2)CN(C(=O)c2ccc(OCCN3CCCCC3)cc2)C/C1=C\c1ccc([N+](=O)[O-])cc1` ? T
